System: Enterococcus faecium
Assay: Minimum inhibitory concentration against Enterococcus faecium 17501 (vancomycin-resistant clinical isolate)
Assay type: functional
Collected MIC values appear next to each entry.
endpointLabel: MIC (µM)

> print(dat)
                                    compound  obsvalue
 1  CN(C)CCNc1ccc(C(=O)/C=C/c2ccc(Oc3ccccc3)cc2)cc1        20
 2  COc1ccc(C(=O)/C=C/c2cc(-c3cc(C)cc(C)c3)ccc2OCCN(C)C)c(CN(C)C)c1         5
 3  COc1ccc(C(=O)/C=C/c2cc(C)ccc2OCCN(C)C)c(F)c1       150
 4  Cc1cc(C)cc(-c2ccc(OCCN(C)C)c(/C=C/C(=O)c3cccc(CN(C)C)c3)c2)c1        10
 5  COc1ccc(C(=O)/C=C/c2cc(-c3ccccc3OC)ccc2N2CCN(C)CC2)c(F)c1        10
 6  Cc1cc(C)cc(-c2ccc(OCCN(C)C)c(/C=C/C(=O)c3ccc(CN(C)C)cc3)c2)c1        10
 7  Cc1cc(C)cc(-c2ccc(OCCN(C)C)c(/C=C/C(=O)c3cccc(OCCN(C)C)c3)c2)c1        10
 8  Cc1cc(C)cc(-c2ccc(N(C)CCN(C)C)c(/C=C/C(=O)c3cccc(NCCN(C)C)c3)c2)c1        10
 9  CN(C)CCNc1ccc(/C=C/C(=O)c2ccc(Oc3ccccc3)cc2)cc1        20
10  COc1ccc(C(=O)/C=C/c2cc(-c3ccccc3C(F)(F)F)ccc2N2CCN(C)CC2)c(F)c1        10
11  COc1ccc(C(=O)/C=C/c2cc(-c3ccccc3)ccc2CN(C)C)c(F)c1       150
12  Cc1cc(C)cc(-c2ccc(OCCN(C)C)c(/C=C/C(=O)c3ccc(NCCN(C)C)cc3)c2)c1        10
13  COc1ccc(C(=O)/C=C/c2ccccc2OCCN(C)C)c(F)c1       300
14  Cc1cc(C)cc(-c2ccc(OCCN(C)C)c(/C=C/C(=O)c3ccccc3NCCN(C)C)c2)c1        10
15  COc1ccc(C(=O)/C=C/c2cc(-c3ccccc3OC)ccc2N2CCCN(C)CC2)c(F)c1        10
16  COc1ccc(C(=O)/C=C/c2cc(-c3cc(C)cc(C)c3)ccc2OCCN(C)C)c(F)c1         5
17  CN(C)CCNc1cccc(C(=O)/C=C/c2ccc(N3CCN(C)CC3)c(-c3ccccc3)c2)c1        75
18  Cc1cc(C)cc(-c2ccc(OCCN(C)C)c(/C=C/C(=O)c3cccc(N)c3)c2)c1        10
19  CN(C)CCNc1cccc(C(=O)/C=C/c2ccc(Cl)cc2Cl)c1        40
20  CN(C)CCNc1cccc(C(=O)/C=C/c2cc(-c3ccccc3)cc(N3CCN(C)CC3)c2)c1        40
21  CN(C)CCNc1cccc(C(=O)/C=C/c2cc(-c3ccccc3)ccc2N2CCN(C)CC2)c1        20
22  CN(C)CCNc1cccc(C(=O)/C=C/c2ccc(-c3ccccc3)cc2N2CCN(C)CC2)c1        40
23  CN(C)CCNc1ccc(C(=O)/C=C/c2ccc(Cl)cc2Cl)cc1        40
24  CN(C)CCOc1ccc(C(=O)/C=C/c2ccc(Cl)cc2Cl)cc1        40
25  Cc1cc(C)cc(-c2ccc(OCCN(C)C)c(/C=C/C(=O)c3ccc(OCCN(C)C)cc3)c2)c1        10
26  Cc1cc(C)cc(-c2ccc(OCCN(C)C)c(/C=C/C(=O)c3ccccc3N)c2)c1         5
27  CN(C)CCNc1ccccc1C(=O)/C=C/c1ccc(Cl)cc1Cl        40
28  CCCCN(CCCC)c1ccc(/C=C/C(=O)c2ccc(NCCN(C)C)cc2)cc1        10
29  Cc1cc(C)cc(-c2ccc(N3CCN(C)CC3)c(/C=C/C(=O)c3cccc(NCCN(C)C)c3)c2)c1         5
30  Cc1cc(C)cc(-c2ccc(OCCN(C)C)c(/C=C/C(=O)c3ccccc3CN(C)C)c2)c1        10
31  C=CC(C)(C)c1cc(/C=C/C(=O)c2ccc(O)cc2)c(OC)cc1O [LICOAGROCHACONE A]        40
